Measured remaining activity at 10 µM, listed per entry.
Biological target: P2X7 (Homo sapiens (Human), UniProt Q99572)
Sequence (Q99572 whole entry): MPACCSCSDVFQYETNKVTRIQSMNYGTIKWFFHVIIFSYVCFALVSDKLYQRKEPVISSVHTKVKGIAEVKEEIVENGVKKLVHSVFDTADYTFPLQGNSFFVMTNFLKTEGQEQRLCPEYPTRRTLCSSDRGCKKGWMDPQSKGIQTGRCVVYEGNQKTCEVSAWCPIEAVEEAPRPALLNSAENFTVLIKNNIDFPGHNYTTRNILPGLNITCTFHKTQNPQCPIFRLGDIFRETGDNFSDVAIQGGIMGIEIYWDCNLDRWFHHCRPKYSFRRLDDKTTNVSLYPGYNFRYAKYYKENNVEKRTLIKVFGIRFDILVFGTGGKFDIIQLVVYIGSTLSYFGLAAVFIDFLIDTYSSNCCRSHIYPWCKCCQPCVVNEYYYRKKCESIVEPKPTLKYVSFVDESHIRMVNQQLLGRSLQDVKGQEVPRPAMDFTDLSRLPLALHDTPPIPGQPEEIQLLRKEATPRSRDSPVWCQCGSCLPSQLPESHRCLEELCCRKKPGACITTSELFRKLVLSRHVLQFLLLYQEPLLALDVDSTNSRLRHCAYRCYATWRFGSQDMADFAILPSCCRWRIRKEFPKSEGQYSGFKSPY
Test: P2X7 antagonism in human PBMCs (IL-1β release, ELISA)
Format: cell-based
Conditions: test compound 10 μM, IL-1β release in human PBMCs, LPS 30 ng/ml + Bz-ATP 0.5 mM, read-out: PBMC 10 μM (% control)
Protocol: Human blood was collected using a blood donor program. […] Cells were incubated for an additional 1.5 hours. […] In Table 2, when the data cell has been left blank, it is intended to mean that the compound was not tested in that assay.
Write it as a number; the unit % goes unstated.

Record excerpt, results attached:
O=C(c1ccc(F)c(Cl)c1Cl)N1CCc2c(ncnc2-c2cccc(F)n2)C1: 2.5
CC1Cc2c(nc(N)nc2-c2ccn[nH]2)CN1C(=O)c1cccc(C(F)(F)F)c1Cl (centres unmarked): -4.1
O=C(c1cccc(C(F)(F)F)c1Cl)N1CCc2c(ncnc2-n2cnnc2)C1: 2.2
Cc1nc2c(c(-c3ccn[nH]3)n1)CC(C)N(C(=O)c1ccc(F)cc1C)C2 (centres unmarked): 0.1

Data request: Using the record for Cc1nc2c(c(-c3ccn[nH]3)n1)CC(C)N(C(=O)c1cccc(C(F)(F)F)c1F)C2 (centres unmarked) , state its measured remaining activity at 10 µM.
Data returned: 22.5

Data request: Respond only with remaining activity at 10 µM recorded for Cc1nc2c(c(-c3ccn[nH]3)n1)CC(C)N(C(=O)c1cccc(C)c1F)C2 (centres unmarked)
Data returned: -1

Data request: Give me measured remaining activity at 10 µM, please, for this compound: CC1Cc2c(ncnc2-c2ccn[nH]2)CN1C(=O)c1cccc(C(F)(F)F)c1Cl (centres unmarked)
Data returned: 44.7

Data request: Tell me remaining activity at 10 µM reported for O=C(c1cccc(C(F)(F)F)c1Cl)N1CCc2c(ncnc2-c2cccc(F)n2)C1
Data returned: 12.9

====

Target: UniProt:Q99572
Assay: Radioligand binding, human P2X7-1321N1 cell membranes, tracer tritiated A-804598
Conditions: human P2X7-1321N1 membranes; 1 hour at 4° C.; IC50 corrected for tracer concentration and affinity
REPORTED_PROPERTY: Ki (nM)
Express the result in nM but write the number alone.

Data request: Give the reported Ki for this compound. O=C(c1cccc(Cl)c1Cl)N1CCc2c(ncnc2-c2ccn[nH]2)C1
Data returned: 15.4

Data request: Annotate the compound Cc1c(C(=O)N2CCc3c(ncnc3-c3cnccn3)C2)cccc1C(F)(F)F with its measured Ki.
Data returned: 79.4

====

Biological target: UniProtKB Q99572
Experiment: Ca2+ flux (FLIPR) in 1321N1 cells expressing recombinant human P2X7 channel
Assay type: cell-based
Details: 250 μM BzATP, Calcium-4 dye
Each entry below carries its recorded pIC50.
Notebook: values listed as pIC50 are -log10 of the concentration (mol/L).

O=C(c1cccc(Cl)c1Cl)N1CCc2c(ncnc2-n2nccn2)C1 [Example 107]: 8.35
Cc1nc2c(c(-c3ccn[nH]3)n1)CC(C)N(C(=O)c1cccc(C)c1F)C2 (centres unmarked) [Example 135]: 6.31
Cc1nc2c(c(-c3ccn[nH]3)n1)CCN(C(=O)c1cccc(Cl)c1Cl)C2 [Example 34]: 7.06
O=C(c1cccc(Cl)c1Cl)N1CCc2c(ncnc2-c2nccs2)C1 [Example 38]: 7.20

Consider the additional molecule presented here.
Data request: Tell us which pIC50 value is on record for Cc1nc2c(c(-c3[nH]ncc3F)n1)CCN(C(=O)c1cccc(C(F)(F)F)c1Cl)C2 [Example 35]
Data returned: 7.32

====

Molecular target: P2X7 (Homo sapiens (Human), UniProt Q99572)
Test: P2X7 antagonism in human PBMCs (IL-1β release, ELISA)
Assay type: cell-based
Details: test compound 10 μM, IL-1β release in human PBMCs, LPS 30 ng/ml + Bz-ATP 0.5 mM, read-out: PBMC 10 μM (% control)
REPORTED_PROPERTY: remaining activity at 10 µM (%)
Report the value in % with no unit label.

Solved cases (3 shown):
Cc1nc2c(c(-c3ccn[nH]3)n1)CC(C)N(C(=O)c1ccc(Cl)cc1)C2 (centres unmarked): 3.8
Cc1nc2c(c(-c3ccn[nH]3)n1)CC(C)N(C(=O)c1ccc(Cl)c(F)c1Cl)C2 (centres unmarked): -2.7
Cc1nc2c(c(-c3ccn[nH]3)n1)CC(C)N(C(=O)c1cccc(C(F)(F)F)c1C)C2 (centres unmarked): 20.9

Data request: Let me know recorded remaining activity at 10 µM for CN(C)c1nc2c(c(-c3ccccc3)n1)CCN(C(=O)c1cccc(Cl)c1Cl)C2 , thanks.
Data returned: 10.8

Data request: Give the value of remaining activity at 10 µM reported for the following: Cc1nc2c(c(-c3ccn[nH]3)n1)CC(C)N(C(=O)c1ccc(C#N)cc1C)C2 (centres unmarked)
Data returned: 2.5

Data request: Supply measured remaining activity at 10 µM of Nc1nc2c(c(-c3ccn[nH]3)n1)CCN(C(=O)c1cccc(C(F)(F)F)c1Cl)C2 in your reply.
Data returned: -2.1

Data request: Hello, please tell me recorded remaining activity at 10 µM for this one: Cc1nc2c(c(-c3ccn[nH]3)n1)CC(C)N(C(=O)c1cccc(Cl)c1Cl)C2 (centres unmarked)
Data returned: -1.3

Data request: Quick one: give measured remaining activity at 10 µM for Cc1nc2c(c(-c3ccnn3C)n1)CC(C)N(C(=O)c1cccc(C(F)(F)F)c1Cl)C2 (centres unmarked)
Data returned: 2.2

====

Measured pIC50, listed per entry for reference.
Target: UniProtKB Q99572
Test: Ca2+ flux (FLIPR) in 1321N1 cells expressing recombinant human P2X7 channel
Assay type: cell-based
Conditions: 250 μM BzATP, Calcium-4 dye
By convention, pIC50 is the negative base-10 log of a molar concentration.

// worked examples, pIC50 included
O=C(c1ccc(Cl)c(F)c1Cl)N1CCc2c(ncnc2-c2ccn[nH]2)C1: 8.23
Cc1nc2c(c(-c3ccn[nH]3)n1)CC(C)N(C(=O)c1ccc(F)cc1F)C2 (stereo not shown): 7.55
Cc1nc2c(c(-c3ccn[nH]3)n1)C[C@@H](C)N(C(=O)c1ccc(Cl)cc1F)C2 (single isomer, unassigned): 4.96

# context switch: different molecule, same pIC50
Data request: Note pIC50 for the molecule shown: O=C(c1cccc(Cl)c1Cl)N1CCc2c(ncnc2-c2ccccc2)C1
Data returned: 7.44

====

Target: P2X7 (Homo sapiens (Human), UniProt Q99572)
Assay: Radioligand binding, human P2X7-1321N1 cell membranes, tracer tritiated A-804598
Settings: human P2X7-1321N1 membranes; 1 hour at 4° C.; IC50 corrected for tracer concentration and affinity
Description: On the day of the experiment, cell membrane preparations were made according to standard published methods. […] The compound can be prepared as described in the literature. […] The assay was terminated by filtration (GF/B filters pre-soaked with 0.3% PEI) and washed with washing buffer (Tris-HCl 50 mM). The IC50 generated in the binding assay was corrected for tracer concentration and affinity of the tracer to derive at the affinity (Ki) of the test compounds.
REPORTED_PROPERTY: pKi
In simple prose, pKi is minus the logarithm base ten of a concentration in moles per litre.

The examples below pair each entry with its known result.
O=C(c1cccc(Cl)c1Cl)N1CCc2c(ncnc2-c2ccccc2)C1: 7.02
O=C(c1cccc(C(F)(F)F)c1Cl)N1CCc2c(nc(C3CC3)nc2-c2ccn[nH]2)C1: 7.20

Data request: Complete the entry with pKi for O=C(c1cccc(Cl)c1Cl)N1CCc2c(ncnc2-c2nccs2)C1
Data returned: 7.11

Data request: Indicate the recorded pKi value for this compound: O=C(c1cccc(C(F)(F)F)c1F)N1CCc2c(ncnc2-c2ccn[nH]2)C1
Data returned: 7.30

Data request: Read off the recorded pKi for O=C(c1ccc(Cl)c(F)c1Cl)N1CCc2c(ncnc2-c2ccn[nH]2)C1
Data returned: 7.60

Data request: Return pKi for the following compound: Cc1nc2c(c(-c3ccn[nH]3)n1)CC(C)N(C(=O)c1ccc(F)cc1F)C2 (centres unmarked)
Data returned: 6.70

Data request: Tell me measured pKi for Cn1ccc(-c2ncnc3c2CCN(C(=O)c2cccc(C(F)(F)F)c2Cl)C3)n1 please.
Data returned: 7.60

Data request: Look up and state reported pKi for Cc1nc2c(c(-c3ccn[nH]3)n1)CC(C)N(C(=O)c1cccc(C(F)(F)F)c1C)C2 (centres unmarked)
Data returned: 7.50

====

Below is a list of entries, each paired with its recorded pKi value.
Molecular target: P2X7 (Homo sapiens (Human))
Assay: Radioligand binding, human P2X7-1321N1 cell membranes, tracer tritiated A-804598
Details: human P2X7-1321N1 membranes; 1 hour at 4° C.; IC50 corrected for tracer concentration and affinity
Notebook: values listed as pKi are -log10 of the concentration (mol/L).

Data request: For the compound Cc1nc2c(c(-c3[nH]ncc3F)n1)CCN(C(=O)c1cccc(Cl)c1Cl)C2 , give its measured pKi value.
Data returned: 7.10

Data request: Read off the recorded pKi for O=C(c1cccc(C(F)(F)F)c1Cl)N1CCc2c(ncnc2-c2ccc[nH]2)C1
Data returned: 7.10

Data request: Specify pKi for Cc1nc2c(c(-c3ccn[nH]3)n1)CCN(C(=O)c1ccc(Cl)c(F)c1Cl)C2 and stop.
Data returned: 7.20

Data request: Give reported pKi value for O=C(c1cccc(C(F)(F)F)c1Cl)N1CCc2c(ncnc2-c2cccc(F)n2)C1
Data returned: 7.20
